Molecular target: UniProt Q8TEK3
Sequence (Q8TEK3 whole entry, looked up): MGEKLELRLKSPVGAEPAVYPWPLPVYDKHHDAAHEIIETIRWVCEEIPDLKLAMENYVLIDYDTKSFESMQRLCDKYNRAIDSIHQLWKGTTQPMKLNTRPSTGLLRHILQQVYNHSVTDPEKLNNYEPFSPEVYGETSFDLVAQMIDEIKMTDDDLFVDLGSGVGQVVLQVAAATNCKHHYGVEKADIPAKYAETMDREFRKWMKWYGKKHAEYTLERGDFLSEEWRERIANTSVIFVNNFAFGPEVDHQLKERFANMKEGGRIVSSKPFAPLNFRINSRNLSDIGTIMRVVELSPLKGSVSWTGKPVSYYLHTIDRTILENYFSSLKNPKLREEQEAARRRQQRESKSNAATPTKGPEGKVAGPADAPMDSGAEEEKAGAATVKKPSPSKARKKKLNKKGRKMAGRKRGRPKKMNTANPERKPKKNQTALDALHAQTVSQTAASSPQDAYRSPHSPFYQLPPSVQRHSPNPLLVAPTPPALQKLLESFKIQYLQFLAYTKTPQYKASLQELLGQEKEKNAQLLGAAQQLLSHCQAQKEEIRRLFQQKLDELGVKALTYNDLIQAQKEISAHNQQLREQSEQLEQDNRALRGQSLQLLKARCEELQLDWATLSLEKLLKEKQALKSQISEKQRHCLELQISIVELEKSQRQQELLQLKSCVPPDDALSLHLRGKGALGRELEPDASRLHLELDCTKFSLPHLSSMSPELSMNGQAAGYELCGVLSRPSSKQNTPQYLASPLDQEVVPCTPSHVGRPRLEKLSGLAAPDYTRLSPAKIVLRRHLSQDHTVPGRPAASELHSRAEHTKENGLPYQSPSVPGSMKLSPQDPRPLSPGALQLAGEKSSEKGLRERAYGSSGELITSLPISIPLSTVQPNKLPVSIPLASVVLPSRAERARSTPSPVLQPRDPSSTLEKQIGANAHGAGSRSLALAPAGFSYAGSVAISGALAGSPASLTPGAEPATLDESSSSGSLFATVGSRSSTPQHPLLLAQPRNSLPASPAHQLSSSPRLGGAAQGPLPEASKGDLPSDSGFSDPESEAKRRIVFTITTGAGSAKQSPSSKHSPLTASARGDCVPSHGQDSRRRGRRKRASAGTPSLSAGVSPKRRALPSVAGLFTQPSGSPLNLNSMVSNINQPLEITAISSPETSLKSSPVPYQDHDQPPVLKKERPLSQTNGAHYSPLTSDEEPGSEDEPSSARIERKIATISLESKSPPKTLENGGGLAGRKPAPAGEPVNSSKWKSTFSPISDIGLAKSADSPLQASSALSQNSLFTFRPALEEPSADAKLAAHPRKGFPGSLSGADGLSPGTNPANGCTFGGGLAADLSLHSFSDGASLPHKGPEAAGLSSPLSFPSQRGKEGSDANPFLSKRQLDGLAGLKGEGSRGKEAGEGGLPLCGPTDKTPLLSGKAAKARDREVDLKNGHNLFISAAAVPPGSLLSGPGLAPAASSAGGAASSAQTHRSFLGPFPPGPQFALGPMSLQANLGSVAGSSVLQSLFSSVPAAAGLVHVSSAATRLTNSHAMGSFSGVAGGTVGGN
Test: Binding affinity to human DOT1L assessed as binding free energy difference
Exercise: state measured deltaG for each of the molecules provided.
Numbers only, in kcal/mol.

CN(CCCNC(=O)Nc1ccc(C(C)(C)C)cc1)C[C@H]1C[C@@H](c2ccc3c(N)ncnn23)[C@H](O)[C@@H]1O (stereo in doubt; (+)-25)    -0.239
CN(CCCNC(=O)Nc1ccccc1)C[C@H]1C[C@@H](c2ccc3c(N)ncnn23)[C@@H](O)[C@@H]1O    3.82
CN(CCCNC(=O)Nc1ccccc1)C[C@H]1C[C@@H](c2cnn3c(N)ccnc23)[C@H](O)[C@@H]1O    2.63
CC(C)N(C[C@H]1C[C@@H](c2ccc3c(N)ncnn23)[C@H](O)[C@@H]1O)[C@H]1C[C@@H](CCc2nc3cc(C(C)(C)C)ccc3[nH]2)C1    -0.717
CN(CCCNC(=O)Nc1ccccc1)C[C@H]1C[C@@](O)(c2ccc3c(N)ncnn23)[C@H](O)[C@@H]1O    3.35

Okay, now this molecule:
Given the molecule `CC(C)N(CCCNC(=O)Nc1ccccc1)C[C@H]1C[C@@H](c2ccc3c(N)ncnn23)[C@H](O)[C@@H]1O` , what is its reported deltaG?
-0.717

###

Assay: Half life in fasted BALB/c mouse at 20 mg/kg, iv administered upto 600 mins by HPLC-MS/MS analysis
Assay type: ADME, organism-based
Settings: in vivo
Exercise: for every item that follows, state its recorded half-life.

CN(CCCNC(=O)Nc1ccc(C(C)(C)C)cc1)C[C@H]1C[C@@H](c2ccc3c(N)ncnn23)[C@H](O)[C@@H]1O (stereo in doubt; (-)-25)    1.97 h
CC(C)NC[C@@H]1C[C@H](c2ccc3c(N)ncnn23)[C@@H](O)[C@H]1O    1.11 h
CC(C)N(C[C@H]1C[C@@H](c2ccc3c(N)ncnn23)[C@H](O)[C@@H]1O)[C@H]1C[C@@H](CCc2nc3cc(C(C)(C)C)ccc3[nH]2)C1    1.56 h

Now for a further compound.
Record request: half-life value, item `CC(C)NC[C@H]1C[C@@H](c2ccc3c(N)ncnn23)[C@H](O)[C@@H]1O`
1.92 h

###

Assay: Volume of distribution in fasted BALB/c mouse at 20 mg/kg, iv administered upto 600 mins by HPLC-MS/MS analysis
Format: ADME, organism-based
Settings: in vivo
quantity-measured: Vd

# per-item lookup of Vd; items listed below
1. CN(CCCNC(=O)Nc1ccc(C(C)(C)C)cc1)C[C@H]1C[C@@H](c2ccc3c(N)ncnn23)[C@H](O)[C@@H]1O (stereo in doubt; (-)-25)
2. CC(C)NC[C@H]1C[C@@H](c2ccc3c(N)ncnn23)[C@H](O)[C@@H]1O
3. CC(C)N(C[C@H]1C[C@@H](c2ccc3c(N)ncnn23)[C@H](O)[C@@H]1O)[C@H]1C[C@@H](CCc2nc3cc(C(C)(C)C)ccc3[nH]2)C1
4. CC(C)NC[C@@H]1C[C@H](c2ccc3c(N)ncnn23)[C@@H](O)[C@H]1O

["18.4 L/kg", "3.88 L/kg", "1.29 L/kg", "4.43 L/kg"]

###

Assay: Cmax in fasted BALB/c mouse at 20 mg/kg, iv administered upto 600 mins by HPLC-MS/MS analysis
Assay type: ADME, organism-based
Set-up: time < 600 min, dose 20 mg/kg, route iv
Settings: in vivo
Kindly state Cmax for each of the entries shown.
Numbers only, in ng/mL.

CC(C)NC[C@@H]1C[C@H](c2ccc3c(N)ncnn23)[C@@H](O)[C@H]1O    18400

Quick batch: Cmax for everything below.
1. CC(C)N(C[C@H]1C[C@@H](c2ccc3c(N)ncnn23)[C@H](O)[C@@H]1O)[C@H]1C[C@@H](CCc2nc3cc(C(C)(C)C)ccc3[nH]2)C1
2. CC(C)NC[C@H]1C[C@@H](c2ccc3c(N)ncnn23)[C@H](O)[C@@H]1O

91200
40800

I'd like to know its Cmax. The compound in question is CN(CCCNC(=O)Nc1ccc(C(C)(C)C)cc1)C[C@H]1C[C@@H](c2ccc3c(N)ncnn23)[C@H](O)[C@@H]1O (stereo in doubt; (-)-25)
8320
